- Test system: UACC-257 melanoma
- ASSAY_TEXT: NCI-60 one-dose screen, 48 h (100 = growth as untreated, 0 = no growth, -100 = all killed)
- CONDITION_PARAMETERS: 10 µM unless noted
About 83,000 compounds went through this panel and 20% of them were active in at least one assay; those are over-represented in the sample as a whole.
// class assignment uses growth with these ranges: low = under 60%, medium = from 60% up to 90%, high = 90% and over

>  <MOLECULE>
O=C(NCCn1ccnc1)c1ccc(-c2nc3ccc4[nH]ncc4c3c3c2CCCC3)cc1

>  <LABEL_CLASS>
high

$$$$

[Q] Band assignment needed for CCO/C=N/C1=C(C#N)C(c2ccc(Cl)cc2)c2sc3c(C)cccc3c2O1 (stereo not drawn) please.
[A] medium

[Q] Band assignment needed for COC[C@]12CCC(C)(C)C[C@H]1C1=CC[C@@H]3[C@@]4(C)CCCNC(C)(C)[C@@H]4CC[C@@]3(C)[C@]1(C)CC2 please.
[A] low

[Q] Band assignment needed for COc1ccc(CCN2C(=O)CSC2=S)cc1 please.
[A] high

[Q] Band assignment needed for COc1ccccc1-n1cc(C#N)c(N)c1C(=O)c1ccc(Br)cc1 please.
[A] medium

[Q] Band assignment needed for COc1ccc(N2CCN(C3=C(Cl)C(=O)C(C)=C(C)C3=O)CC2)cc1 please.
[A] high

[Q] Band assignment needed for COc1c(N2CC3CCCNC3C2)c(F)cc2c(=O)c(C(=O)N/N=C/c3ccc(Br)cc3)cn(C3CC3)c12 (stereo not drawn) please.
[A] high

[Q] Band assignment needed for Cc1ccc(CSc2nc(-c3ccc(Cl)cc3)c(C#N)c(N3CCOCC3)n2)cc1 please.
[A] high

[Q] Band assignment needed for O=C1[C@H]2Cc3c([nH]c4ccccc34)[C@@H](c3ccc(Cl)cc3)N2C(=O)CN1C1CCN(Cc2ccccc2)CC1 please.
[A] medium

[Q] Band assignment needed for CCNC(=O)N1CCc2cc(OC)c(OCCc3ccc(OC)nc3)cc2C1c1ccc(C)cc1C (stereo not drawn) please.
[A] low

[Q] Band assignment needed for CS(=O)(=O)c1ccc(-c2nn(-c3ccccc3)cc2/C=N/NC(=O)c2nc(N)n[nH]2)cc1 please.
[A] high

[Q] Band assignment needed for CCc1nn2c(C)cc(C)nc2c1Cc1ccc(/C=C/CN2CCN(CCOCCOCCN3CCN(C/C=C/c4ccc(Cc5c(CC)nn6c(C)cc(C)nc56)cc4)CC3)CC2)cc1 please.
[A] low

[Q] Band assignment needed for COc1cc(OC)c(/C=C/S(=O)(=O)Cc2ccc(OC)c(NCC(=O)NO)c2)c(OC)c1 please.
[A] medium

[Q] Band assignment needed for COc1cccc2cc(-c3cc4ccccc4[nH]3)/c(=N\NC(=O)c3ccc(Cl)cc3)oc12 please.
[A] low

* * *

- System: RPMI-8226 leukemia
- ASSAY_TEXT: NCI-60 one-dose screen, 48 h (100 = growth as untreated, 0 = no growth, -100 = all killed)
- CONDITION_PARAMETERS: 10 µM unless noted
The panel holds about 83,000 compounds, 20% with a hit somewhere; the sample as a whole holds those more often.
Consider the following compounds; for each one, report its growth.
Answers are plain numbers, in %.

Some compounds with known growth results, for comparison:
>  <COMPOUND>
Cc1ccc(NC(=S)NNC(=S)Nc2ccc(C)cc2)cc1

>  <MEASUREMENT_UNIT>
%

>  <growth>
104

$$$$
>  <COMPOUND>
COc1ccc(/C(N)=N/C(N)=N/c2nc3ccccc3s2)cc1

>  <MEASUREMENT_UNIT>
%

>  <growth>
43.6

$$$$
>  <COMPOUND>
C#Cc1nc(C(=O)NCCC(=O)Nc2ccc(NC(=O)c3ccc(/C=C/C(=O)c4nccn4C)cc3)cc2)cs1

>  <MEASUREMENT_UNIT>
%

>  <growth>
-33

$$$$
>  <COMPOUND>
CCNC(=O)N1CCc2cc(OC)c(OCCc3ccc(OC)cc3)cc2C1c1ccc(OC)cc1C (centres undefined)

>  <MEASUREMENT_UNIT>
%

>  <growth>
13.6

$$$$
>  <COMPOUND>
COC(=O)/C=C/c1c(C2(C)NC(=O)c3ccccc3N2)c(=O)oc2ccc(Cl)cc12 (centres undefined)

>  <MEASUREMENT_UNIT>
%

>  <growth>
94.7

$$$$

Give one value of growth per listed compound.
1. O=c1[nH]c(Sc2sc3ccc(Cl)cc3c2CBr)nc(=S)[nH]1
2. CC1(C)CC[C@]2(C(=O)N3CCOCC3)CC[C@]3(C)C(=CC[C@@H]4[C@@]5(C)C/C(=C/c6ccco6)C(=O)C(C)(C)[C@@H]5CC[C@]43C)[C@@H]2C1
3. Cn1cc(-c2nc(N)nnc2-c2c[nH]c3ccc(Br)cc23)c2cc(Br)ccc21
4. CNC(=O)c1cc(Oc2ccc3nc(NC(=O)c4cc(N5CCOCC5)cc(C(F)(F)F)c4)sc3c2)ccn1

[A]
[24.2, 55.6, 31.1, 51.6]

* * *

- Test system: MOLT-4 leukemia
- ASSAY_TEXT: NCI-60 one-dose screen, 48 h (100 = growth as untreated, 0 = no growth, -100 = all killed)
- CONDITION_PARAMETERS: 10 µM unless noted
Compounds without any hit were thinned out: in the full panel of roughly 83,000, 20% have a hit.
READOUT_NAME: growth (%)
Answers are plain numbers, in %.

Some molecules with known growth results, for comparison:
>  <STRUCTURE_SMILES_STRING>
CN1CCC(n2cc(Nc3ncc4c(=O)n(-c5c(Cl)cccc5Cl)cc(Br)c4n3)cn2)CC1

>  <MEASUREMENT_UNIT>
%

>  <growth>
13

$$$$
>  <STRUCTURE_SMILES_STRING>
O=C(CCC(=O)N1CCOCC1)OCCCCCCSc1ccc([N+](=O)[O-])c2nonc12

>  <MEASUREMENT_UNIT>
%

>  <growth>
-2.71

$$$$
>  <STRUCTURE_SMILES_STRING>
CC(C)(C)c1ccc(C(=O)Nc2sc3c(c2C(N)=O)CC/C(=N\O)C3)cc1

>  <MEASUREMENT_UNIT>
%

>  <growth>
15

$$$$
>  <STRUCTURE_SMILES_STRING>
CS(=O)(=O)Nc1cc(-c2ccc3ncc(C#N)c(Nc4cccc(Cl)c4F)c3c2)cnc1Cl

>  <MEASUREMENT_UNIT>
%

>  <growth>
-11.1

$$$$

[Q] For the molecule Cc1ccc(N2C(=O)/C(=C/C=C/c3ccco3)SC2=S)cc1 , give its measured growth value.
[A] 9.93

* * *

Consider the following compounds; for each one, report its growth.
- Test system: SK-MEL-28 melanoma
- ASSAY_TEXT: NCI-60 one-dose screen, 48 h (100 = growth as untreated, 0 = no growth, -100 = all killed)
- CONDITION_PARAMETERS: 10 µM unless noted
The panel holds about 83,000 compounds, 20% with a hit somewhere; the sample as a whole holds those more often. Calls of active or inactive are those of the source. How the source made its calls: active means growth percent below 10; inactive means the rest.

>  <COMPOUND>
CCOC(=O)c1c(NC(=O)c2ccccc2C(F)(F)F)sc2c1CCC(=O)C2

>  <TARGET_SYSTEM>
SK-MEL-28 melanoma

>  <READOUT_NAME>
growth

>  <EXPERIMENTAL_RESULT>
80.1% (inactive)

$$$$

Give one value of growth per listed compound.
1. CS(=O)(=O)c1ccc(-c2nn(-c3ccccc3)cc2/C=N/NC(=O)c2nc(N)n[nH]2)cc1
2. CCN(CC)c1ccc2c(c1)Oc1nc(N)c(C#N)c(N)c1C2Sc1ccc(F)cc1 (stereo not given)

[A]
108% (inactive)
-62% (active)

Give one value of growth per listed compound.
1. Cc1c(Cl)cccc1S(=O)(=O)Nc1ccc2c(c1)C(=O)N(C1CCC(=O)NC1=O)C2=O (stereo not given)
2. C#CCn1cccc1CNc1ccc(OC)cc1

[A]
1. 97.8% (inactive)
2. -48.9% (active)

* * *

- System: MDA-MB-231 breast
- ASSAY_TEXT: NCI-60 one-dose screen, 48 h (100 = growth as untreated, 0 = no growth, -100 = all killed)
- CONDITION_PARAMETERS: 10 µM unless noted
About 83,000 compounds went through this panel and 20% of them were active in at least one assay; those are over-represented in the sample as a whole.
READOUT_NAME: growth (%)
Give bare numbers, in %.

>  <MOLECULE>
Cc1ccc(-n2cc(/C=N/NC(=O)c3ccncc3)c(-c3ccc(S(C)(=O)=O)cc3)n2)cc1

>  <growth, %>
79.5

$$$$
>  <MOLECULE>
COc1ccc(N2CCN(C3=C(Cl)C(=O)C(C)=C(C)C3=O)CC2)cc1

>  <growth, %>
88.2

$$$$
>  <MOLECULE>
COc1cc(-c2nc(-c3ccccc3)[nH]c2-c2ccnc(NCCCNS(=O)(=O)c3cccc(F)c3)n2)ccc1Cl

>  <growth, %>
64.8

$$$$
>  <MOLECULE>
CCOC(=O)c1c(Nc2ccccc2)nn2c(-c3ccc(Cl)cc3)ccnc12

>  <growth, %>
75.4

$$$$
>  <MOLECULE>
CCCn1cnc2c(c1=N)C(c1ccc(Cl)cc1)c1sc3c(CC)cccc3c1O2 (stereo not drawn)

>  <growth, %>
30.8

$$$$
>  <MOLECULE>
CC1(C)[C@@H](O)CC[C@]2(C)[C@H]3CC[C@@H]4[C@H]5[C@H](C(=O)/C=C\c6ccc([N+](=O)[O-])cc6)CC[C@]5(O)CC[C@@]4(C)[C@]3(C)CC[C@@H]12

>  <growth, %>
46.2

$$$$
>  <MOLECULE>
CC[C@]12C=CCN3CC[C@@]4(c5cc(NC(=O)COc6cc(O)c7c(=O)cc(-c8ccccc8)oc7c6)c(OC)cc5N(C)[C@H]4[C@@](O)(C(=O)OC)[C@@H]1OC(C)=O)[C@@H]32

>  <growth, %>
-58.3

$$$$
>  <MOLECULE>
NC(=O)c1c(NC(=O)c2ccccc2C(F)(F)F)sc2c1CCC(=O)C2

>  <growth, %>
16.2

$$$$
>  <MOLECULE>
CCn1c(SCC(=O)Nc2cccc(C(=O)/C=C/c3ccc(Br)cc3)c2)nc2ccccc2c1=O

>  <growth, %>
85.5

$$$$
>  <MOLECULE>
COc1ccc(-c2nn(-c3ccc(S(C)(=O)=O)cc3)cc2/C=N/O)cc1

>  <growth, %>
96.7

$$$$

Give one value of growth per listed molecule.
1. CCc1cccc2c3c(sc12)C(c1ccc(Cl)cc1)C(C#N)=C(/N=C/c1ccc(Cl)cc1)O3 (stereo not drawn)
2. COc1ccccc1N1CCN(C2=CC(=O)C(C)=C(C)C2=O)CC1
3. CC(C)c1ccc(NCc2cn(-c3ccc(C(=O)O)cc3)nc2-c2cc(C(F)(F)F)cc(C(F)(F)F)c2)cc1
4. NC(N)=Nc1ccc(Oc2cccc(Nc3ccc(Cl)c(C(F)(F)F)c3)c2)cn1
5. NC(N)=Nc1ccc(Oc2cccc(NC(N)=Nc3ccc(I)cc3F)c2)cc1
6. COc1ccc(NC2=C(Cl)C(=O)c3nc(C)ccc3C2=O)cc1OC
7. NS(=O)(=O)c1ccc(-n2cc(CN3CCNCC3)nn2)cc1
8. O=C1[C@@H]2Cc3c([nH]c4ccccc34)[C@H](c3c(Cl)cccc3Cl)N2C(=O)CN1C1CCN(CC2CCCCC2)CC1

[A]
1. 33.8
2. 102
3. 91.8
4. -58.1
5. 83.6
6. 73
7. 105
8. 50
